Cited source: paper PMC11359809

Target or system: WT ZAC (Homo sapiens, UniProt Q401N2, A152T)
Construct: expressed in transfected cells; host or cells: Xenopus oocytes injected with cRNA (pUNIV vector)
Method description: TEVC in Xenopus oocytes expressing WT ZAC
Format: cell-based
Condition set: agonist; a couple of oocyte batches with 5–10-fold higher potency (Cluster 1 double/triple mutant experiments)
pEC50: −log10 of the molar value.
Readout: pEC50

Ask: Lab note: need pEC50 for "[Cl-].[Cl-].[Zn+2]" on WT ZAC (Homo sapiens, UniProt Q401N2, A152T), anyone have it?
Result: ~4.00

====

Target or system: ZAC^L9′A (Homo sapiens, UniProt Q401N2, A152T/L270A)
Method description: TEVC in oocytes, ZAC L9′A mutant
Condition set: agonist; n = 7
Readout: EC50 (µM)
One number for each entry, in µM.

Ask: Lab note: need EC50 for "[Cl-].[Cl-].[Zn+2]" on ZAC^L9′A (Homo sapiens, UniProt Q401N2, A152T/L270A), anyone have it?
Result: 230

====

Target or system: WT ZAC (Homo sapiens, UniProt Q401N2, A152T)
Construct: expressed in transfected cells; host or cells: Xenopus oocytes injected with cRNA (pUNIV vector)
Method description: TEVC in Xenopus oocytes expressing WT ZAC
Format: cell-based
Condition set: agonist; section 3.1 recordings, n = 8
Readout: EC50 (µM)
One number for each entry, in µM.

Ask: EC50 for "[Cl-].[Cl-].[Zn+2]" ?
Result: 500

====

Target or system: ZAC^L9′V (Homo sapiens, UniProt Q401N2, A152T/L270V)
Sequence (Q401N2 26-412 A152T/L270V): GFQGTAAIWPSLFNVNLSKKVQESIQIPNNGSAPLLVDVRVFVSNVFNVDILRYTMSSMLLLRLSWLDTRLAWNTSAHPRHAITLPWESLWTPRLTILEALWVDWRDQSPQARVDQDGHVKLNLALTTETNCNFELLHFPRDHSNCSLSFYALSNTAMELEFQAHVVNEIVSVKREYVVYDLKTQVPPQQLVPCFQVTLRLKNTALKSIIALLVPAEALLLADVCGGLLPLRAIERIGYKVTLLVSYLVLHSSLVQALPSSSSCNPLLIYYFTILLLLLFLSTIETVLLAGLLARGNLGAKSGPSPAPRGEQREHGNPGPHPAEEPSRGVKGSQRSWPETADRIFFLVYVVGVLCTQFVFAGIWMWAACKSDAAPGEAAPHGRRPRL
Method description: TEVC in oocytes, ZAC L9′V mutant
Condition set: agonist; n = 8
Readout: EC50

Ask: EC50 for "[Cl-].[Cl-].[Zn+2]" ?
Result: 13 µM

====

Target or system: WT ZAC (Homo sapiens, UniProt Q401N2, A152T)
Construct: expressed in transfected cells; host or cells: Xenopus oocytes injected with cRNA (pUNIV vector)
Method description: TEVC in Xenopus oocytes expressing WT ZAC
Type: cell-based
Condition set: agonist; normal potency in the vast majority of oocyte batches in this work and in two other studies
pEC50: −log10 of the molar value.
Readout: pEC50

Ask: pEC50 for "[Cl-].[Cl-].[Zn+2]" ?
Result: 3.00 to 3.30

====

Target or system: ZAC^L9′T (Homo sapiens, UniProt Q401N2, A152T/L270T)
Sequence (Q401N2 26-412 A152T/L270T): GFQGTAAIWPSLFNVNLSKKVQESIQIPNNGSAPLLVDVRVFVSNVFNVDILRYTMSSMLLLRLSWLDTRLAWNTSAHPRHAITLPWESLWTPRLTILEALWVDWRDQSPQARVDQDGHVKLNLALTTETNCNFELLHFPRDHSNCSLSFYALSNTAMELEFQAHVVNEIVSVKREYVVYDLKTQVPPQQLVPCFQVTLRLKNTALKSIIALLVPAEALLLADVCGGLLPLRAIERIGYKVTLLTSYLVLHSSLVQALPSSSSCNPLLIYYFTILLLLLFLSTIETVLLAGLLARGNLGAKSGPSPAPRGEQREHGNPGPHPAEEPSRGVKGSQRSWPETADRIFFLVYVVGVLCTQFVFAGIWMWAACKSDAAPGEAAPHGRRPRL
Method description: TEVC in oocytes, ZAC L9′T mutant
Condition set: agonist; n = 6
Readout: EC50 (µM)
Numbers only, in µM.

Ask: EC50 for "[Cl-].[Cl-].[Zn+2]" ?
Result: 66
